# Tgt: hLPAR1 (human lysophosphatidic acid receptor 1, Accession No.: NM_001401.4) (Homo sapiens)
# Procedure Summary: cell-based
# Assay Conditions: Table 1; FLIPR method, CHO-K1 cells overexpressing hLPAR1; read-out: LPAR1 inhibitory activity IC50
Observable: IC50 (nM)

Some entries whose results are on file:
compound="Cc1nc(-c2nnn(C)c2NC(=O)O[C@H](C)CC(C)(C)F)ccc1C#C[C@@H]1CC(F)(F)C[C@H]1C(=O)O [compound 273]" reported_measurement=14.9
compound="Cc1nc(-c2nnn(C)c2NC(=O)O[C@H](C)C(F)(F)C(C)C)ccc1C#CC1(CC(=O)O)CC1 [compound 265]" reported_measurement=21.5
compound="Cc1nc(-c2nnn(C)c2COC(=O)N(C)[C@H](C)C2CC2)ccc1C#CC1(CC(=O)O)CC1 [compound 030]" reported_measurement=33.6
compound="CCC(F)(F)CC(C)OC(=O)Nc1c(-c2ccc(C#CC3CCC3C(=O)O)c(C)n2)nnn1C (single isomer, unassigned) [245-B]" reported_measurement=34.6
compound="Cc1nc(-c2nnn(C)c2COC(=O)N(C)CC2CC2C)ccc1C#CC1(CC(=O)O)CC1 (stereo not shown) [compound 073]" reported_measurement=79.1

(A) Cc1nc(-c2nnn(C)c2NC(=O)O[C@H](C)c2ccccc2Cl)ccc1C#C[C@@H]1CCCC[C@H]1C(=O)O (mixture of isomers) [031-A]
(B) Cc1nc(-c2nnn(C)c2NC(=O)OC(C)CC(C)(C)F)ccc1C#CC1CCC1C(=O)O (single isomer, unassigned) [306-A]
## Task IC50 comparison. Which is larger, A or B ? Mark your selection by writing its label.
## Result B

====

# Procedure Summary: Pharmacokinetic study in rats (oral gavage and tail vein injection, plasma LC-MS/MS)
# Format: in vivo
# Assay Conditions: male, SD, rat, iv, 1 mg/kg
Observable: half-life (h)

compound="CCC(F)(F)[C@@H](C)OC(=O)Nc1c(-c2ccc(C#C[C@@H]3CCC[C@H]3C(=O)O)c(C)n2)nnn1C (mixture of isomers) [219-B]" reported_measurement=3.89
compound="CCC(F)(F)[C@@H](C)OC(=O)Nc1c(-c2ccc(C#C[C@@H]3CC[C@H]3C(=O)O)c(C)n2)nnn1C (mixture of isomers) [212-B]" reported_measurement=7.43
compound="Cc1nc(-c2nnn(C)c2NC(=O)OC(C)c2cc(F)cnc2Cl)ccc1C#CC1(CC(=O)O)CC1 (single isomer, unassigned) [023-A]" reported_measurement=7.5
compound="Cc1nc(-c2nnn(C)c2NC(=O)O[C@H](C)c2ccccc2)ccc1C#C[C@@H]1C[C@H]1C(=O)O [compound 295]" reported_measurement=3.46
compound="Cc1nc(-c2nnn(C)c2CNc2nccc(C3CCC3)n2)ccc1C#CC1(CC(=O)O)CC1 [compound 214]" reported_measurement=7.01

(1) Cc1nc(-c2nnn(C)c2NC(=O)OC(C)CCC(F)F)ccc1C#CC1(CC(=O)O)CC1 (centres unmarked) [compound 283]
(2) CCC[C@@H](C)OC(=O)Nc1c(-c2ccc(C#C[C@@H]3C[C@H]3C(=O)O)c(C)n2)nnn1C (mixture of isomers) [compound 224]
(3) CCC(F)(F)[C@@H](C)OC(=O)Nc1c(C)noc1-c1ccc(C#CC2(CC(=O)O)CC(OC)C2)c(C(F)(F)F)n1 (some centres unmarked) [compound 506]
## Task Order field: half-life | Direction: descending (largest first) // format: requested-order list of labels
## Result 1, 2, 3
(1: 7.36 h, 2: 4.78 h, 3: 2.51 h)

====

# Tgt: LPAR1 receptor (Homo sapiens, UniProt Q92633)
# Construct: expressed in transfected cells
# Sequence (Q92633 whole entry): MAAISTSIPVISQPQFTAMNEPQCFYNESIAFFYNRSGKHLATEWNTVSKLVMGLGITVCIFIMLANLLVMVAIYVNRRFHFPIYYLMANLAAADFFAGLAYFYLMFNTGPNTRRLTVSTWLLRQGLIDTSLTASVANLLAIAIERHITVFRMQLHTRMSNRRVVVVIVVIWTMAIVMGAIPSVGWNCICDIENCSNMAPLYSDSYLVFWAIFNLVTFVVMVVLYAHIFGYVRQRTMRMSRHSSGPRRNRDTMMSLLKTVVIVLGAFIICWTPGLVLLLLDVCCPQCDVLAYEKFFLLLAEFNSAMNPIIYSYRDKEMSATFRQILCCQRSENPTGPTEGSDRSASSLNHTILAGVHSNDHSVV
# Procedure Summary: LPAR1 in vitro biological activity evaluation 2: HTRF cAMP kit (LANCE Ultra cAMP Kit) assay in CHO stable transfected cell line expressing the LPAR1 receptor
# Format: cell-based
# Assay Conditions: LPAR1 inhibitory activity IC50, Table 2
Observable: pIC50
pIC50 here: minus log base 10 of the concentration, concentration in moles per litre.

## Task Find pIC50 (LPAR1 receptor (Homo sapiens, UniProt Q92633)) for the entry CCC(F)(F)[C@@H](C)OC(=O)Nc1c(-c2ccc(C#CC3(CC(=O)O)CC(OC)C3)c(C)n2)noc1C (stereo partly shown)
## Result 7.50

====

# Tgt: hLPAR1 (human lysophosphatidic acid receptor 1, Accession No.: NM_001401.4) (Homo sapiens, UniProt Q92633)
# Sequence (Q92633 whole entry): as above
# Procedure Summary: cell-based
# Assay Conditions: LPAR1 inhibitory activity IC50, Table 1; FLIPR method, CHO-K1 cells overexpressing hLPAR1
Documented IC50 across a set of compounds
// note: answer is a bare numeric in µM

Some entries whose results are on file:
smiles=Cc1nc(-c2nnn(C)c2NC(=O)O[C@H](C)c2ccccc2Cl)ccc1C#C[C@H]1CC[C@@H]1C(=O)O unit_symbol=µM reported_measurement=0.0033
smiles=CCC[C@@H](C)OC(=O)Nc1c(-c2ccc(C#CC3(CC(=O)O)CCC3)c(C)n2)nnn1C unit_symbol=µM reported_measurement=0.0403
smiles=CCCC[C@@H](C)OC(=O)Nc1c(-c2ccc(C#CC3(CC(=O)O)CC3)c(C)n2)nnn1C unit_symbol=µM reported_measurement=0.0161
smiles=Cc1nc(-c2nnn(C)c2NC(=O)O[C@H](C)CC(C)C)ccc1C#CC1(CC(=O)O)CC1 unit_symbol=µM reported_measurement=0.0155
smiles=Cc1nc(-c2nnn(C)c2CNC(=O)OCc2cc(F)cnc2Cl)ccc1C#CC1(CC(=O)O)CC1 unit_symbol=µM reported_measurement=0.0794
smiles=Cc1nc(-c2nnn(C)c2NC(=O)O[C@H](C)CC(C)(C)F)ccc1C#CC1(CC(=O)O)CC1 unit_symbol=µM reported_measurement=0.0528

Consider the additional compound presented here.
## Task Param item = "Cc1nc(-c2nnn(C)c2CNC(=O)OCc2ccccc2)ccc1C#CC1(CC(=O)O)CC1" ; retrieve measured IC50.
## Result 0.043

====

Documented AUC(0-t) across a set of molecules
# Procedure Summary: Pharmacokinetic study in rats (oral gavage and tail vein injection, plasma LC-MS/MS)
# Type: in vivo
# Assay Conditions: rat, SD rats, Iv, 1 mg/kg

molecule=Cc1nc(-c2onc(C)c2NC(=O)O[C@H](C)CC(C)(F)F)ccc1C#CC1(CC(=O)O)CC1 observable=AUC(0-t) reported_measurement="3000 to 5000 ng·h/mL"
molecule=CCc1nc(-c2nnn(C)c2NC(=O)O[C@H](C)CC(C)(F)F)ccc1C#CC1(CC(=O)O)CC1 observable=AUC(0-t) reported_measurement="5000 to 10000 ng·h/mL"
molecule="CCc1nc(-c2noc(C)c2NC(=O)O[C@H](C)C(F)(F)CC)ccc1C#CC1(CC(=O)O)CC(OC)C1 (stereo partly shown)" observable=AUC(0-t) reported_measurement="5000 to 10000 ng·h/mL"

Consider the additional molecule presented here.
## Task Param item = CCC(F)(F)CC(C)OC(=O)Nc1c(-c2ccc(C#CC3CCC3C(=O)O)c(C)n2)nnn1C (single isomer, unassigned) ; retrieve measured AUC(0-t).
## Result 3000 to 5000 ng·h/mL

====

# Procedure Summary: Pharmacokinetic study in rats (oral gavage and tail vein injection, plasma LC-MS/MS)
# Assay type: in vivo
# Assay Conditions: rat, SD rats, Po, 3 mg/kg, read-out: Cmax
Observable: Cmax

smiles=Cc1nc(-c2nnn(C)c2CNC(=O)OCc2ccccc2)ccc1C#CC1(CC(=O)O)CC1 reported_measurement="800 to 5000 ng/mL"

Consider the additional compound presented here.
## Task Param item = "CCCC[C@@H](C)OC(=O)Nc1c(-c2ccc(C#CC3(CC(=O)O)CC3)c(C)n2)nnn1C" ; retrieve measured Cmax.
## Result 800 to 5000 ng/mL

====

# Procedure Summary: Pharmacokinetic study in rats (oral gavage and tail vein injection, plasma LC-MS/MS)
# Assay type: in vivo
# Assay Conditions: male, rat, SD rats, Po, 1 mg/kg, read-out: Cmax
Observable: Cmax

## Task Param item = Cc1nc(-c2nnn(C)c2NC(=O)OC(C)CCC(F)F)ccc1C#CC1(CC(=O)O)CC1 (stereo not drawn) ; retrieve measured Cmax.
## Result 200 to 800 ng/mL

## Task Param item = CCCN(C)C(=O)OCc1c(-c2ccc(O[C@H]3CCC[C@H](C(=O)O)C3)c(C)n2)nnn1C [Control compound 1, reference compound] ; retrieve measured Cmax.
## Result 154 ng/mL

## Task Param item = "C[C@H](CC(C)(F)F)OC(=O)Nc1c(-c2ccc(C#CC3(CC(=O)O)CC3)c(Cl)n2)nnn1C" ; retrieve measured Cmax.
## Result 200 to 800 ng/mL

## Task Param item = CCC(F)(F)[C@@H](C)OC(=O)Nc1c(C)noc1-c1ccc(C#CC2(CC(=O)O)CC(OC)C2)c(C(F)(F)F)n1 (stereo partly drawn) ; retrieve measured Cmax.
## Result 800 to 5000 ng/mL

## Task Param item = CCc1nc(-c2nnn(C)c2NC(=O)O[C@H](C)C(F)(F)CC)ccc1C#CC1(CC(=O)O)CC(OC)C1 (stereo partly drawn) ; retrieve measured Cmax.
## Result 800 to 5000 ng/mL

## Task Param item = CCC(F)(F)[C@@H](C)OC(=O)Nc1c(-c2ccc(C#C[C@@H]3CC[C@H]3C(=O)O)c(C)n2)nnn1C (mixture of isomers) ; retrieve measured Cmax.
## Result 800 to 5000 ng/mL

## Task Param item = Cc1nc(-c2nnn(C)c2NC(=O)OC(C)C23CC(F)(C2)C3)ccc1C#CC1(CC(=O)O)CC1 (stereo not drawn) ; retrieve measured Cmax.
## Result 200 to 800 ng/mL

## Task Param item = CC(OC(=O)Nc1c(-c2ccc(C#CC3(CC(=O)O)CC3)c(F)n2)nnn1C)C12CC(C1)C2 (stereo not drawn) ; retrieve measured Cmax.
## Result 800 to 5000 ng/mL

## Task Param item = Cc1nc(-c2nnn(C)c2NC(=O)O[C@H](C)CC(C)(C)F)ccc1C#C[C@@H]1CCC[C@H]1C(=O)O (mixture of isomers) ; retrieve measured Cmax.
## Result 800 to 5000 ng/mL

## Task Param item = CCC[C@@H](C)OC(=O)Nc1c(-c2ccc(C#CC3(CC(=O)O)CC(OC)C3)c(C)n2)nnn1C (stereo partly drawn) ; retrieve measured Cmax.
## Result 200 to 800 ng/mL
